Consider the following binders; for each one, report its Classification.
measuredTarget: GST-PAR3 PDZ domain 3 (Homo sapiens (Human)), Q8TEW0
Sequence (Q8TEW0 579-681): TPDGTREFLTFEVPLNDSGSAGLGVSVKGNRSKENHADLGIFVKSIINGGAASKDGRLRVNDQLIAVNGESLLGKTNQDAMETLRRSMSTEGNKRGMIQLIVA
protocol: G' assay; note: key of the grades not given here
Write the numeric value and append its unit.

// Input: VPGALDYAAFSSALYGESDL (modifications not checked) [a-actinin 2] . Output its Classification only.
1 A450 class

// Input: STDNLVRPFMDTLASHQLYI (modifications not checked) [presenilin-2] . Output its Classification only.
5 A450 class

// Input: LLNVLQRQELGDGLDDEIAV (modifications not checked) [CAPON (carboxyl-terminal PDZ ligand of neuronal nitric oxide synthase) mRNA] . Output its Classification only.
1 A450 class

// Input: RPMESNPDTEGAQGETEDVL (modifications not checked) [parathyroid hormone receptor 2] . Output its Classification only.
1 A450 class

// Input: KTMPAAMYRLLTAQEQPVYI (modifications not checked) [MINT-1] . Output its Classification only.
5 A450 class

// Input: QGDPALQDAGDSSRKEYFI (modifications not checked) [Glycophorin C] . Output its Classification only.
2 A450 class

// Input: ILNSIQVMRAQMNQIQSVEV (modifications not checked) [ephrin B2] . Output its Classification only.
2 A450 class

// Input: HDFRRAFKKILARGDRKRIV (modifications not checked) [alpha-2A Adrenergic receptor] . Output its Classification only.
2 A450 class

// Input: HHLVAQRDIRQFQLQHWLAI (modifications not checked) [noradrenaline transporter] . Output its Classification only.
4 A450 class

// Input: KTMPAATYRLLTGQEQPVYL (modifications not checked) [MINT-3] . Output its Classification only.
1 A450 class

// Input: VDPNSPAAKKKYVSYNNLVI (modifications not checked) [GLUR7 (metabotropic glutamate receptor)] . Output its Classification only.
2 A450 class

// Input: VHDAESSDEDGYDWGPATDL (modifications not checked) [zona occludens 3 (ZO-3) PL peptide] . Output its Classification only.
1 A450 class

// Input: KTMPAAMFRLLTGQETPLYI (modifications not checked) [MINT-2] . Output its Classification only.
5 A450 class

// Input: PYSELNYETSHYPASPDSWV (modifications not checked) [catenin - delta 2] . Output its Classification only.
1 A450 class

// Input: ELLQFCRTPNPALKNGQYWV (modifications not checked) [CSPG4 (chondroitin sulfae proteoglycan 4, melanoma-associated)] . Output its Classification only.
3 A450 class
